From: patent US20240041877A1

assay: Study KAR5585-101 Part 1 (SAD): plasma pharmacokinetics after a single oral dose of KAR5585, fasting and fed (incl. dose proportionality and food effect); details: human, plasma, po, 700 mg, C12, KAR5417 after 700 mg KAR5585 single oral, fasted, Cohort 4; Geo. Mean
metric-name: concentration at 12 h (ng/mL)
Give bare numbers, in ng/mL.

Which concentration at 12 h is listed for Nc1nc(O[C@H](c2ccc(Cl)cc2-c2ccccc2)C(F)(F)F)cc(N2CCC3(CC2)CN[C@H](C(=O)O)C3)n1 [KAR5417] ?
93.8

====

test: Part 1 (SAD): urine pharmacokinetics (amount excreted, renal clearance) after a single oral dose of KAR5585; type: in vivo, human; conditions: human, plasma and urine, oral, from plasma AUC0-96 and amount recovered in urine; read-out: Renal clearance, range across doses
metric-name: CL renal

Which CL renal is listed for Nc1nc(O[C@H](c2ccc(Cl)cc2-c2ccccc2)C(F)(F)F)cc(N2CCC3(CC2)CN[C@H](C(=O)O)C3)n1 [KAR5417] ?
2.62 to 4.93 mL/min

====

test: Part 1 (SAD): urine pharmacokinetics (amount excreted, renal clearance) after a single oral dose of KAR5585; format: in vivo, human; conditions: human, urine and plasma, po, 2000 mg, KAR5585; 2000 mg KAR5585 single oral dose; mean; read-out: CLR (converted)
metric-name: CL renal

Which CL renal is listed for CCOC(=O)[C@@H]1CC2(CCN(c3cc(O[C@H](c4ccc(Cl)cc4-c4ccccc4)C(F)(F)F)nc(N)n3)CC2)CN1 [KAR5585] ?
0.0383 mL/min

====

assay: Study KAR5585-101 Part 1 (SAD): plasma pharmacokinetics after a single oral dose of KAR5585, fasting and fed (incl. dose proportionality and food effect); details: human, plasma, po, 400 mg, AUC0-tau, 400 mg KAR5585 single oral, fed, Cohort 3B; Geo. Mean
metric-name: AUC (ng·h/mL)
One number for each entry, in ng·h/mL.

Which AUC is listed for CCOC(=O)[C@@H]1CC2(CCN(c3cc(O[C@H](c4ccc(Cl)cc4-c4ccccc4)C(F)(F)F)nc(N)n3)CC2)CN1 [KAR5585] ?
854

====

test: Study KAR5585-101 Part 1 (SAD): plasma pharmacokinetics after a single oral dose of KAR5585, fasting and fed (incl. dose proportionality and food effect); conditions: human, plasma, po, 700 mg, AUC0-tau, KAR5417 after 700 mg KAR5585 single oral, fasted, Cohort 4; Geo. Mean
metric-name: AUC (ng·h/mL)
Answers are plain numbers, in ng·h/mL.

Which AUC is listed for Nc1nc(O[C@H](c2ccc(Cl)cc2-c2ccccc2)C(F)(F)F)cc(N2CCC3(CC2)CN[C@H](C(=O)O)C3)n1 [KAR5417] ?
3870

====

experiment: Study KAR5585-101 Part 1 (SAD): plasma pharmacokinetics after a single oral dose of KAR5585, fasting and fed (incl. dose proportionality and food effect); settings: human, plasma, po, 400 mg, AUC0-12, KAR5417 after 400 mg KAR5585 single oral, fasted, Cohort 3A; Geo. Mean
metric-name: AUC(0-t)
# output: numeric value plus its unit

Which AUC(0-t) is listed for Nc1nc(O[C@H](c2ccc(Cl)cc2-c2ccccc2)C(F)(F)F)cc(N2CCC3(CC2)CN[C@H](C(=O)O)C3)n1 [KAR5417] ?
2460 ng·h/mL

====

test: Study KAR5585-101 Part 1 (SAD): plasma pharmacokinetics after a single oral dose of KAR5585, fasting and fed (incl. dose proportionality and food effect); conditions: human, plasma, po, 400 mg, tmax, 400 mg KAR5585 single oral, fasted, Cohort 3A; Median
metric-name: Tmax (h)
Answers are plain numbers, in h.

Which Tmax is listed for CCOC(=O)[C@@H]1CC2(CCN(c3cc(O[C@H](c4ccc(Cl)cc4-c4ccccc4)C(F)(F)F)nc(N)n3)CC2)CN1 ?
2.07

====

assay: Study KAR5585-101 Part 1 (SAD): plasma pharmacokinetics after a single oral dose of KAR5585, fasting and fed (incl. dose proportionality and food effect); settings: human, plasma, po, 400 mg, t1/2, KAR5417 after 400 mg KAR5585 single oral, fed, Cohort 3B; Mean
metric-name: half-life (h)
Give bare numbers, in h.

Which half-life is listed for Nc1nc(O[C@H](c2ccc(Cl)cc2-c2ccccc2)C(F)(F)F)cc(N2CCC3(CC2)CN[C@H](C(=O)O)C3)n1 ?
20.5

====

test: Study KAR5585-101 Part 1 (SAD): plasma pharmacokinetics after a single oral dose of KAR5585, fasting and fed (incl. dose proportionality and food effect); conditions: human, plasma, po, 100 mg, t1 (t½, apparent terminal half-life), 100 mg KAR5585 single oral, fasted, Cohort 1; Geo. Mean
metric-name: half-life (h)
Give bare numbers, in h.

Which half-life is listed for CCOC(=O)[C@@H]1CC2(CCN(c3cc(O[C@H](c4ccc(Cl)cc4-c4ccccc4)C(F)(F)F)nc(N)n3)CC2)CN1 ?
1.71

====

test: Study KAR5585-101 Part 1 (SAD): plasma pharmacokinetics after a single oral dose of KAR5585, fasting and fed (incl. dose proportionality and food effect); details: human, plasma, po, 200 mg, AUC0-24, KAR5417 after 200 mg KAR5585 single oral, fasted, Cohort 2; Geo. Mean
metric-name: AUC(0-t) (ng·h/mL)
Give bare numbers, in ng·h/mL.

Which AUC(0-t) is listed for Nc1nc(O[C@H](c2ccc(Cl)cc2-c2ccccc2)C(F)(F)F)cc(N2CCC3(CC2)CN[C@H](C(=O)O)C3)n1 [KAR5417] ?
940

====

experiment: Study KAR5585-101 Part 1 (SAD): plasma pharmacokinetics after a single oral dose of KAR5585, fasting and fed (incl. dose proportionality and food effect); conditions: human, plasma, po, 400 mg, AUC0-∞, KAR5417 after 400 mg KAR5585 single oral, fasted, Cohort 3A; Mean
metric-name: AUC(0-inf) (ng·h/mL)
Answers are plain numbers, in ng·h/mL.

Which AUC(0-inf) is listed for Nc1nc(O[C@H](c2ccc(Cl)cc2-c2ccccc2)C(F)(F)F)cc(N2CCC3(CC2)CN[C@H](C(=O)O)C3)n1 [KAR5417] ?
3650

====

assay: Study KAR5585-101 Part 1 (SAD): plasma pharmacokinetics after a single oral dose of KAR5585, fasting and fed (incl. dose proportionality and food effect); conditions: human, plasma, po, 400 mg, Plasma AUC0-96, KAR5417 in plasma; 400 mg (fed) KAR5585 single oral dose; mean
metric-name: AUC(0-t) (ng·h/mL)
Give bare numbers, in ng·h/mL.

Which AUC(0-t) is listed for Nc1nc(O[C@H](c2ccc(Cl)cc2-c2ccccc2)C(F)(F)F)cc(N2CCC3(CC2)CN[C@H](C(=O)O)C3)n1 ?
6590

====

experiment: Study KAR5585-101 Part 1 (SAD): plasma pharmacokinetics after a single oral dose of KAR5585, fasting and fed (incl. dose proportionality and food effect); conditions: human, plasma, po, 2000 mg, AUC0-24, KAR5417 after 2000 mg KAR5585 single oral, fasted, Cohort 6; Mean
metric-name: AUC(0-t) (µg·h/mL)
Give bare numbers, in µg·h/mL.

Which AUC(0-t) is listed for Nc1nc(O[C@H](c2ccc(Cl)cc2-c2ccccc2)C(F)(F)F)cc(N2CCC3(CC2)CN[C@H](C(=O)O)C3)n1 ?
9.08

====

assay: Study KAR5585-101 Part 1 (SAD): plasma pharmacokinetics after a single oral dose of KAR5585, fasting and fed (incl. dose proportionality and food effect); conditions: human, plasma, po, 1200 mg, Plasma AUC0-96, KAR5417 in plasma; 1200 mg KAR5585 single oral dose; mean
metric-name: AUC(0-t)

Which AUC(0-t) is listed for Nc1nc(O[C@H](c2ccc(Cl)cc2-c2ccccc2)C(F)(F)F)cc(N2CCC3(CC2)CN[C@H](C(=O)O)C3)n1 [KAR5417] ?
7910 ng·h/mL

====

test: Study KAR5585-101 Part 1 (SAD): plasma pharmacokinetics after a single oral dose of KAR5585, fasting and fed (incl. dose proportionality and food effect); conditions: human, plasma, po, 400 mg, Vz/F, 400 mg KAR5585 single oral, fed, Cohort 3B; Mean
metric-name: Vd/F (L)
Answers are plain numbers, in L.

Which Vd/F is listed for CCOC(=O)[C@@H]1CC2(CCN(c3cc(O[C@H](c4ccc(Cl)cc4-c4ccccc4)C(F)(F)F)nc(N)n3)CC2)CN1 [KAR5585] ?
2780

====

assay: Study KAR5585-101 Part 1 (SAD): plasma pharmacokinetics after a single oral dose of KAR5585, fasting and fed (incl. dose proportionality and food effect); conditions: human, plasma, po, 400 mg, Vz/F, 400 mg KAR5585 single oral, fed, Cohort 3B; Geo. Mean
metric-name: Vd/F (L)
Answers are plain numbers, in L.

Which Vd/F is listed for CCOC(=O)[C@@H]1CC2(CCN(c3cc(O[C@H](c4ccc(Cl)cc4-c4ccccc4)C(F)(F)F)nc(N)n3)CC2)CN1 [KAR5585] ?
2730
